Provenance of the data: the supplement of paper PMC3334620

subject_of_test: Sko1 (UniProt Q02100)
Sequence: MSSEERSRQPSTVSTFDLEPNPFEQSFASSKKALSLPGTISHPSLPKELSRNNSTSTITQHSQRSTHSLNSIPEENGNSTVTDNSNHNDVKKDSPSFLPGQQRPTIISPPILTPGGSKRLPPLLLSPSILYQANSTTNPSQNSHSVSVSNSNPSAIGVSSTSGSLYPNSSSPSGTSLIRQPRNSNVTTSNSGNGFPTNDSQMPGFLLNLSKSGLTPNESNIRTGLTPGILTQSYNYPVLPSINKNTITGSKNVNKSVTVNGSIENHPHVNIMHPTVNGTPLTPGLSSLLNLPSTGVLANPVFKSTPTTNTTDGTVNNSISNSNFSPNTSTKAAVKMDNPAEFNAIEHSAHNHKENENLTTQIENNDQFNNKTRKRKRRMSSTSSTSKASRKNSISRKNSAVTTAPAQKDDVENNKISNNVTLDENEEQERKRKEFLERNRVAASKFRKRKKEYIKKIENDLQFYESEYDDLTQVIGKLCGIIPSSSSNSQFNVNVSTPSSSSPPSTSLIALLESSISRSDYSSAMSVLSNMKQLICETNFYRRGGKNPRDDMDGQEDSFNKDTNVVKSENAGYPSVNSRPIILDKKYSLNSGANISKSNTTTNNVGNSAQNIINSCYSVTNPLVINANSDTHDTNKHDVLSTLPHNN
protocol_text: PBM E-score (8-mer binding enrichment) (E-score (-0.5 to 0.5)); higher = stronger / more preferred TF binding
measurement_conditions: protein concentration: 200 nM; construct: GST-full length
The full ranking holds about 33,000 sequences; the median of “E-score (-0.5 to 0.5)” is about -0.032, and the highest 2% start at about 0.36. Many of the other results were omitted from the sample, so the highest values are more common in it than they were.
Reported PBM E-score values for the following sequences.

| query_sequence | PBM E-score |
| --- | --- |
| CACTTACC | 0.109 |
| ACAACGTG | 0.218 |
| AAACGCAT | 0.0801 |
| GCGTAAGC | 0.294 |
| CCAACGTC | 0.236 |
| ACGTAGTA | 0.446 |
| CGACGCCA | 0.174 |
| ATGATGTG | 0.379 |
| GCACCCGC | -0.0958 |
| AACTCACA | 0.0634 |
| TGACGCAA | 0.483 |
| CCACTGTC | -0.185 |
| ACACGCAA | 0.376 |
| ACTGGTTA | 0.0712 |
| GCGTAATA | 0.421 |
| ACAACGCC | 0.0338 |
| TTACGGAA | 0.246 |
| AAGGTTTA | -0.0389 |
| ACGTAGTG | 0.452 |
| ACACGCAT | 0.219 |
| AGCACATA | 0.0436 |
| GCAACGAA | 0.148 |
| ACGTAGTC | 0.425 |
| ACACCTAC | -0.0103 |
| AGGTAGTG | -0.0666 |
| AGACGCAA | 0.258 |
| ATACGCAC | 0.389 |
| CACTTACA | 0.164 |
| AAGTAAGT | 0.0641 |
| ACGTAAGT | 0.465 |
| ACTTAGTC | -0.15 |
| AGCACGTA | 0.406 |
| AGCACGAG | -0.0498 |
| ACAACGTA | 0.416 |
| TCGAGTCA | -0.00474 |
| CGATGGAA | 0.106 |
| GGACGCAA | 0.164 |
| GCAACGCA | 0.0485 |
| CCGTAAGC | -0.0492 |
| ATGGAGGG | -0.334 |
| GACCTGGC | -0.297 |
| CCGTAATA | 0.288 |
| AGCACGTG | 0.397 |
| AGACGCCA | 0.0116 |
| CCGTAGTA | -0.0427 |
| TCGTAAGA | 0.199 |

---

subject_of_test: Sko1 (UniProt Q02100)
Sequence: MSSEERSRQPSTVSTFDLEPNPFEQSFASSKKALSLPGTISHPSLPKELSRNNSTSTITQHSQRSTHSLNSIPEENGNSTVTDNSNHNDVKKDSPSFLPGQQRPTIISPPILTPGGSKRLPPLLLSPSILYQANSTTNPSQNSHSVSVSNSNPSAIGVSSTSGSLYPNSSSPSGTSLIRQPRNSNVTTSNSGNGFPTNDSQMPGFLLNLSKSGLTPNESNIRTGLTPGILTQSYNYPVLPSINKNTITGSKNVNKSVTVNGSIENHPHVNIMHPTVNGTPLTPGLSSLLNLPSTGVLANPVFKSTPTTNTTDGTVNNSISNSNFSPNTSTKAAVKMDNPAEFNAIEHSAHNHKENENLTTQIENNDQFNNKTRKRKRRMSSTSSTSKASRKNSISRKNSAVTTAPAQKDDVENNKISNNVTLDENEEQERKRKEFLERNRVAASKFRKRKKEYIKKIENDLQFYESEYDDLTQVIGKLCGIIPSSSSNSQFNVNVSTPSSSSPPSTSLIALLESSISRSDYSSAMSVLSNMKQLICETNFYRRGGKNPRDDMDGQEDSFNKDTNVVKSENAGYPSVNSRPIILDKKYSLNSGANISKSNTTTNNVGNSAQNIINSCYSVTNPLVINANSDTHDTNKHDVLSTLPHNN
protocol_text: PBM E-score (8-mer binding enrichment) (E-score (-0.5 to 0.5)); higher = stronger / more preferred TF binding
measurement_conditions: protein concentration: 200 nM; construct: GST-full length
Over roughly 33,000 sequences, “E-score (-0.5 to 0.5)” has its median near -0.032; the highest 2% begin near 0.36. This is one part of a sample in which the highest values are shown more often than they occur.
Is PBM E-score at least 0.2? Then true. If not, false.

| query_sequence | subject_of_test | label_value |
| --- | --- | --- |
| ATGTGACC | Sko1 (UniProt Q02100) | false |
| CACGTCGC | Sko1 (UniProt Q02100) | true |
| AAATACGC | Sko1 (UniProt Q02100) | true |
| ACATACGT | Sko1 (UniProt Q02100) | true |
| CTTCCTTC | Sko1 (UniProt Q02100) | false |
| ACACGTAT | Sko1 (UniProt Q02100) | true |
| ACACGTTC | Sko1 (UniProt Q02100) | true |
| CATCCTGA | Sko1 (UniProt Q02100) | false |
| CGGTGACC | Sko1 (UniProt Q02100) | false |
| TAATGCAA | Sko1 (UniProt Q02100) | false |
| AAATATTA | Sko1 (UniProt Q02100) | true |
| CGGTGACA | Sko1 (UniProt Q02100) | false |
| CCACTCGC | Sko1 (UniProt Q02100) | false |
| CAACGTAA | Sko1 (UniProt Q02100) | true |
| ACATACGC | Sko1 (UniProt Q02100) | true |
| ACATACGG | Sko1 (UniProt Q02100) | false |
| ACTTCGAT | Sko1 (UniProt Q02100) | false |
| CAACGTGA | Sko1 (UniProt Q02100) | false |
| CGGTGACG | Sko1 (UniProt Q02100) | true |
| ACCCGTAC | Sko1 (UniProt Q02100) | false |
| AGGTGACA | Sko1 (UniProt Q02100) | false |
| GGCGTCAA | Sko1 (UniProt Q02100) | true |

---

subject_of_test: Sko1 (UniProt Q02100)
Sequence: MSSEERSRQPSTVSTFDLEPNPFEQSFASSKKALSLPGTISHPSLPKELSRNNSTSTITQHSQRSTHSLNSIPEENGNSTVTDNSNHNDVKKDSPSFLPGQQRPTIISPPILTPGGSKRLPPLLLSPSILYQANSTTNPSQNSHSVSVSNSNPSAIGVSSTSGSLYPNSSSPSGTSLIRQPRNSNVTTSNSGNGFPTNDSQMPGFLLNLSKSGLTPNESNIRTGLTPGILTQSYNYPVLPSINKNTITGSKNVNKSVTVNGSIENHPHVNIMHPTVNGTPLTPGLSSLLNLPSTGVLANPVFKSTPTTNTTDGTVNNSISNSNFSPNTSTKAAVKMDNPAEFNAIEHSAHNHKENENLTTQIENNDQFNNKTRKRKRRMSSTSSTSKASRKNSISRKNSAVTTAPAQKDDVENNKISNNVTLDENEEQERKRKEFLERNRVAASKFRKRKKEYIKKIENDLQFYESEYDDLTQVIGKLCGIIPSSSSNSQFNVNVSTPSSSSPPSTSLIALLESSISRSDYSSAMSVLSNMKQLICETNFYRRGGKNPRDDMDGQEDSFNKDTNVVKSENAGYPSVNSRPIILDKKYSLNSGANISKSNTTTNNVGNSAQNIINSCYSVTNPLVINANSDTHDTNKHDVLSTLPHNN
protocol_text: PBM E-score (8-mer binding enrichment) (E-score (-0.5 to 0.5)); higher = stronger / more preferred TF binding
measurement_conditions: protein concentration: 200 nM; construct: GST-full length
In all, about 33,000 sequences were measured (“E-score (-0.5 to 0.5)”: median about -0.032, highest 2% from about 0.36 on). The list comes from a sample in which the highest values are over-represented; it also holds close analogues and randomly drawn sequences.
measurement_kind: PBM E-score

| query_sequence | value_observed |
| --- | --- |
| GGAACGTA | 0.289 |
| CATTTGTC | 0.0524 |
| ATAACGGG | 0.00173 |
| AACCACGT | 0.371 |
| GCGACGAA | 0.0338 |
| GACACGTA | 0.44 |
| CCTGTGTA | -0.0155 |
| GCCGAGAC | -0.218 |
| AATTTACG | 0.332 |
| TAATTCGA | 0.198 |
| CATTTACA | 0.103 |
| AACGCATA | 0.219 |
| GTTACGTA | 0.483 |
| AACCACGA | -0.0344 |
| ATTTTACG | 0.383 |
| CATTTACC | 0.129 |
| AGAACGTG | 0.246 |
| CGGGCTCC | -0.343 |
| CTTACGGA | 0.0115 |
| AACCACGC | 0.111 |
| CTGATCCC | -0.269 |
| CGCTAGCG | -0.26 |
| GACACGTC | 0.382 |
| AGAACGTA | 0.366 |
| CACGCACG | 0.204 |
| ACCCACGA | -0.0425 |
| CAGCACCG | -0.198 |
| ACCCTGAT | -0.0969 |
| TACGCAAA | 0.415 |
| CGAACGTA | 0.361 |
| ACTACGAC | 0.181 |
| TGGCCCAA | -0.0707 |
| ATTTTACC | 0.252 |
| CTCTGATA | 0.0155 |
| TACGCATA | 0.368 |
| TACGTCAA | 0.479 |
| CGGTGGAA | -0.188 |
| GTTACGGA | 0.0875 |
| CATGCCTC | 0.0373 |
| ACAACTAA | 0.161 |
| CACGTCAG | 0.462 |
| CCCGTCAG | -0.214 |
| CTTACTTA | 0.0934 |
| AACGCAAC | 0.289 |
| GACACGGC | -0.0578 |
| AACGCAAT | 0.38 |
| AATACGAG | 0.244 |
| CAGTTCAG | -0.112 |
| GACGCAAA | 0.347 |
| CATCTTAC | 0.228 |
| CTTCGGTC | -0.0632 |
| CGGCATAC | -0.00615 |
| GGTCTCCA | -0.19 |
| GACACGGA | -0.224 |
| AACCTTCT | -0.298 |
| CCGACGTC | 0.309 |
| TTCGTCAA | 0.297 |
| CTAACGTC | 0.338 |
| AACGTCAG | 0.429 |
| CCGACGGA | -0.237 |
| ACACCACG | 0.063 |
| CACAGTGC | -0.182 |
| ACTTTTGC | 0.185 |
| CTAGCTAC | -0.105 |
| ACTTTACA | 0.158 |
| CCTTACCC | -0.149 |
| CGACCTTC | -0.189 |
| CATTTACG | 0.369 |
| CACGCATA | 0.0358 |
| AAATCCCC | -0.238 |
| CCGACGTA | 0.415 |
| ACCCACGC | -0.0576 |
| CTTACGTC | 0.459 |
| TGGCGGAA | -0.102 |
| TAGAGAGA | -0.0704 |
| AATCACGT | 0.429 |
| CTTGAAGA | -0.132 |
| GTGAAGGA | -0.0285 |
| CTTACGAC | 0.16 |
| ATAACGTG | 0.377 |
| AACATTCC | 0.0401 |
| CCACCGAA | -0.00284 |
| CTCAGCCC | -0.249 |
| TCCGTCAA | 0.0302 |
| GCCTTCCA | -0.222 |
| ATAACGTC | 0.425 |
| CACTATCG | -0.0728 |
| ACGAAGGG | 0.129 |
| CTCGGATC | -0.0845 |
| AGTCGGAA | -0.0901 |
| CACGATCG | 0.0307 |
